inhibition at 10 µM listing for selected molecules.
- Test system: H2030
- Assay text: Non Small Cell Lung Cancer proliferation assay (Alamar Blue reduction), H2030
- Format: cell-based, human
- Condition notes: Homo sapiens, NCI-H2030; primary screening; 10 μM compound in 1% DMSO (v/v); read-out: percentage inhibition H2030
The response must be a number in % with no trailing unit.

Recorded inhibition at 10 µM, per entry:
INSERT INTO assay_data (molecule, obs_value) VALUES
  ('Cc1ccc(-n2ncc(SCc3ccccc3)c(Cl)c2=O)cc1 [compound 182830]', 3),
  ('CCSc1cnn(-c2ccccc2)c(=O)c1Cl [compound 103997]', 9),
  ('COc1nn(-c2ccccc2)c(=O)c(Cl)c1Cl [compound 104332]', 87),
  ('O=c1c(Cl)c(Cl)cnn1-c1ccc(Cl)cc1 [compound 104004]', 75),
  ('O=c1c(SCc2ccc(Cl)cc2)c(SC2CCCCO2)cnn1-c1ccccc1 (stereo not drawn) [compound 195063]', -6),
  ('COc1c(Cl)cnn(-c2ccc(Cl)c(C(F)(F)F)c2)c1=O [compound 174405]', -9);

Next, consider the following molecule.
### Prompt What value of inhibition at 10 µM has been reported for the following molecule? O=c1c(SCc2ccccc2)c(SCc2ccccc2)cnn1-c1ccc(Br)cc1 [compound 208699]
### Response 10

* * *

- System: H2030
- Assay text: Non Small Cell Lung Cancer proliferation assay (Alamar Blue reduction), H2030
- Assay type: cell-based, human
- Condition notes: Homo sapiens, NCI-H2030; primary screening; 10 μM compound in 1% DMSO (v/v); read-out: percentage inhibition H2030
Assay endpoint: inhibition at 10 µM (%)
The response must be a number in % with no trailing unit.

INSERT INTO results (structure_smiles_string, measured_target, obs_value) VALUES
  ('CCCCSc1cnn(-c2ccccc2)c(=O)c1SCc1ccccc1', 'H2030', 4);

Next, consider the following compound.
### Prompt Can you look up inhibition at 10 µM on H2030 for `N=c1c(-c2nc3ccccc3[nH]2)cc(C(=O)c2cccs2)nn1-c1ccc(Cl)cc1` ?
### Response -4

* * *

- Tested on: H1650
- Assay text: Non Small Cell Lung Cancer proliferation assay (Alamar Blue reduction), H1650
- Format: cell-based, human
- Condition notes: Homo sapiens, NCI-H1650; primary screening; 10 μM compound in 1% DMSO (v/v); read-out: percentage inhibition H1650
Assay endpoint: inhibition at 10 µM (%)
The response must be a number in % with no trailing unit.

INSERT INTO assay_data (compound, obs_value) VALUES
  ('O=c1c(SCc2ccccc2)c(N2CCCCC2)cnn1-c1ccccc1 [compound 195989]', 21),
  ('O=C(Cc1ccccc1)Oc1ccc(=O)n(-c2ccccc2)n1 [compound 180651]', 21);

### Prompt Can you look up inhibition at 10 µM on H1650 for COc1cnn(-c2cccc(Cl)c2)c(=O)c1Cl [compound 104390] ?
### Response 15

### Prompt Can you look up inhibition at 10 µM on H1650 for COc1cnn(-c2ccccc2)c(=O)c1N(C)C [compound 103971] ?
### Response 5

* * *

- Test system: H2030
- Assay text: Non Small Cell Lung Cancer proliferation assay (Alamar Blue reduction), H2030
- Assay type: cell-based, human
- Condition notes: Homo sapiens, NCI-H2030; primary screening; 10 μM compound in 1% DMSO (v/v); read-out: percentage inhibition H2030
inhibition at 10 µM listing for selected molecules.
The response must be a number in % with no trailing unit.

Recorded inhibition at 10 µM, per entry:
INSERT INTO results (molecule, assay_endpoint, units_label, obs_value) VALUES
  ('COc1cc(Cl)nn(-c2ccccc2)c1=O [compound 206569]', 'inhibition at 10 µM', '%', 7),
  ('Cc1ccc(-n2nc(C(=O)O)c(/C=C/c3ccc(Cl)cc3Cl)c(C#N)c2=O)cc1C [compound 227626]', 'inhibition at 10 µM', '%', 0),
  ('CCOC(=O)COc1cnn(-c2ccccc2)c(=O)c1Cl [compound 225042]', 'inhibition at 10 µM', '%', 6),
  ('COc1cnn(-c2ccccc2)c(=O)c1S [compound 187118]', 'inhibition at 10 µM', '%', 7),
  ('O=c1c(Cl)c(N2CCCC2)cnn1-c1ccccc1 [compound 103868]', 'inhibition at 10 µM', '%', -4),
  ('O=c1cc(N2CCOCC2)cnn1-c1ccccc1 [compound 195066]', 'inhibition at 10 µM', '%', 9);

### Prompt What value of inhibition at 10 µM has been reported for the following molecule? O=C(CSc1cnn(-c2ccccc2)c(=O)c1Cl)c1ccc(Br)cc1 [compound 183073]
### Response 8
